Can you tell me GI50 for the items I'm about to list?
tested on: HL-60(TB) leukemia; assay: NCI tumour cell line growth inhibition, 48 h

Q. Form field: GI50 recorded for C#C[C@]1(O)CC[C@H]2[C@@H]3CC=C4c5sc(N=C(N)N)nc5CC[C@]4(C)[C@H]3CC[C@@]21C with HL-60(TB) leukemia (enter value)
A. 0.425 µM

Q. Form field: GI50 recorded for CCCCCCCCCCCCCCCc1cc(O)ccc1N with HL-60(TB) leukemia (enter value)
A. 0.142 µM

Q. Form field: GI50 recorded for O=C(Nc1ccc(Br)cc1)Nc1n[nH]c2ccccc12 with HL-60(TB) leukemia (enter value)
A. 18.7 µM

Q. Form field: GI50 recorded for CCCCC(=O)N/N=C/c1cc(I)cc(I)c1O with HL-60(TB) leukemia (enter value)
A. 2.49 µM

Q. Form field: GI50 recorded for O=C1OC(c2ccc(O)c(Cl)c2)(c2ccc(O)c(Cl)c2)c2ccc(Br)c3cccc1c23 (tested in a mixture with another compound) with HL-60(TB) leukemia (enter value)
A. 17.5 µM

Q. Form field: GI50 recorded for CCOC(=O)CC1(O)C=CC(=O)C=C1 with HL-60(TB) leukemia (enter value)
A. 1 mg/L

Q. Form field: GI50 recorded for COc1ccc(-c2n[nH]nc2-c2csc3ccccc23)cc1OC with HL-60(TB) leukemia (enter value)
A. 1.7 µM

Q. Form field: GI50 recorded for CCCN(CCC)c1ccc(CO)c(C)c1 with HL-60(TB) leukemia (enter value)
A. 21.6 µM

Q. Form field: GI50 recorded for CC(C)(C)c1ccc([I+]c2ccc(C(C)(C)C)cc2)cc1 with HL-60(TB) leukemia (enter value)
A. 0.55 µM

Q. Form field: GI50 recorded for CC(=O)OC1COC(S[As](C)C)C(OC(C)=O)C1OC(C)=O (stereo not given) with HL-60(TB) leukemia (enter value)
A. < 0.0158 µM

====

test system: OVCAR-4 ovarian; assay: NCI tumour cell line growth inhibition, 48 h
value kind: TGI

Q. Need TGI of CN(C)CCNc1ccc([N+](=O)[O-])c2nc3ccccc3c(N)c12 , thanks.
A. 3.58 µM

Q. Need TGI of COC(=O)NCCc1[nH]nc2c1C(=O)C=C(Nc1ccccc1)C2=O , thanks.
A. 72 µM

Q. Need TGI of Cc1ccc(/C=C/C(=O)c2c([O-])on[n+]2-c2ccccc2)cc1 , thanks.
A. > 21.1 µM

Q. Need TGI of O=C1c2ccccc2-c2nnc(-c3ccccc3)cc21 , thanks.
A. > 10 µM

Q. Need TGI of COC(=O)C1=Nc2c(C)nn(-c3ccccc3)c2N=C(c2ccc(C)cc2)C1 , thanks.
A. > 10 µM

Q. Need TGI of Cc1cccc(Nc2cn(COCc3ccccc3)c(=O)[nH]c2=O)c1 , thanks.
A. > 100 µM

Q. Need TGI of C(=C\c1csnn1)/c1cccnc1 , thanks.
A. > 100 µM

Q. Need TGI of O=C1c2cc3ccccc3cc2C2(c3ccc(Cl)cc3)N[C@H]3CCCC[C@@H]3N12 (some centres undefined) , thanks.
A. 21.3 µM

Q. Need TGI of Nc1nc(Cl)cc(NCC2(CO)CCC(Cc3ccccc3)C2)n1 (centres undefined) , thanks.
A. > 100 µM

====

system: HS 578T breast; assay: NCI tumour cell line growth inhibition, 48 h
value kind: TGI

Q. Need TGI of CC(NS(C)(=O)=O)c1ccccc1 (stereo not drawn) , thanks.
A. > 100 µM

Q. Need TGI of Nc1nc(Cl)cc(NCC2(CO)CCC(Cc3ccccc3)C2)n1 (stereo not drawn) , thanks.
A. > 79.9 µM

Q. Need TGI of O=C(O)C1C2CC3C(OC(=O)C31)C2Br (stereo not drawn) , thanks.
A. > 100 µM

Q. Need TGI of CC(C)(C)c1ccc(CN2CCN(C(c3ccccc3)c3ccc(Cl)cc3)CC2)cc1 (stereo not drawn) , thanks.
A. > 100 µM

Q. Need TGI of CC(=O)/C=C/C1=C(c2cc3ccccc3s2)c2ccccc2CC1 , thanks.
A. > 100 µM

Q. Need TGI of N#Cc1[nH]c(=O)n(-c2ccc(Cl)cc2)c1N , thanks.
A. > 10 µM

Q. Need TGI of O=C1NC2(CCCCC2)N=C2C(Cl)CCCC12Cl (stereo not drawn) , thanks.
A. > 100 µM

Q. Need TGI of CCCNC(=S)N/N=C/c1cccc(C)n1 , thanks.
A. > 100 µM

Q. Need TGI of O=S1(=O)CCN(Cc2ccccn2)CC1 , thanks.
A. > 100 µM

Q. Need TGI of CC(=O)Oc1ccc2c(c1)c1c(=O)oc(N(C)C)nc1n2Cc1ccccc1 , thanks.
A. > 100 µM

Q. Need TGI of CC(C)OP(=O)(CN(C)/C(F)=N\C(F)(F)F)OC(C)C , thanks.
A. > 100 µM

Q. Need TGI of CCOC(=O)CC1(O)C=CC(=O)C=C1 , thanks.
A. 15.3 µg/mL

Q. Need TGI of COP(C)(=O)/C(Cc1ccccc1)=N\O (stereo not drawn) , thanks.
A. > 100 µM
